All figures here come from patent US5922697A.

Target: Abl SH2 (Homo sapiens, UniProt P00519)
Construct: glutathione-S-transferase(GST)-Abl SH2 fusion protein
Sequence (P00519 127-217 limits assumed): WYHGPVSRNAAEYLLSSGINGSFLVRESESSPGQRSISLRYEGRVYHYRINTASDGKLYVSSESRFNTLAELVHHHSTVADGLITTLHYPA
Assay: Inhibition of 125I-phosphopeptide binding to immobilized Abl SH2
Details: IC50, Abl SH2 Binding, competitive 125I-phosphopeptide displacement, GST-Abl SH2 fusion protein, pH 7.5, room temperature, 20 minutes
pIC50: −log10 of the molar value.
If the reported pIC50 equals or exceeds 5, assign 1. If not, assign -1.

Identify whether the reported pIC50 of the following molecule is 5 or greater: CC(=O)N[C@@H](Cc1ccc(OP(=O)(O)O)cc1)C(=O)NC(C)c1ccc(OCc2cc(C)cc(C)c2)c(C(N)=O)c1 (mixture of isomers)
1

Could you tell me if the measured pIC50 of CC(=O)N[C@@H](Cc1ccc(OP(=O)(O)O)cc1)C(=O)NC(C)c1ccc(OCC2CCCCC2)c(CC(N)=O)c1 (mixture of isomers) reaches 5 or more?
-1

Test whether the molecule CC(=O)N[C@@H](Cc1ccc(OP(=O)(O)O)cc1)C(=O)NC(C)c1ccc(OC(C)CC2CCCCC2)c(C(N)=O)c1 (single isomer, unassigned) [Example 64a] records pIC50 of 5 or higher.
1

Confirm if pIC50 reported for the molecule CN(CCCC1CCCCC1)C(=O)[C@H](CCC(=O)O)NC(=O)c1ccc(OP(=O)(O)O)cc1 is 5 or above.
-1

Check this molecule for pIC50 at or above 5: NC(=O)c1cc(CNC(=O)NCc2ccc(OP(=O)(O)O)cc2)ccc1OCC1CCCCC1
-1

# bool: pIC50 of CN(C)C(=O)N[C@@H](Cc1ccc(OP(=O)(O)O)cc1)C(=O)N[C@@H](CCC(=O)O)C(=O)N(C)CCCC1CCCCC1 >= 5
1

Determine whether this molecule has pIC50 no lower than 5: NC(=O)c1cc(CNC(=O)Nc2ccc(OP(=O)(O)O)cc2)ccc1OCC1CCCCC1
-1

Determine whether this molecule has pIC50 no lower than 5: CC(=O)N[C@@H](Cc1ccc(OP(=O)(O)O)cc1)C(=O)N[C@@H](CCC(=O)O)C(=O)NCCCc1cccc(OCC(N)=O)c1
-1

Can CC(=O)N[C@@H](Cc1ccc(OP(=O)(O)O)cc1)C(=O)NC(C)c1ccc(OC(C)CC2CCCCC2)c(C(N)=O)c1 (single isomer, unassigned) [Example 64b] be said to have pIC50 at or above 5?
-1

Reported pIC50 at or above 5? CC(=O)N[C@@H](Cc1ccc(OP(=O)(O)O)cc1)C(=O)NC(Cc1ccccc1)c1ccc(OCC2CCCCC2)c(C(N)=O)c1 (mixture of isomers)
1

Is pIC50 for CC(=O)N[C@@H](Cc1ccc(OP(=O)(O)O)cc1)C(=O)NCc1ccc(OCC2CCCCC2)c(C(=O)NO)c1 at or above 5?
-1

Textbook exercise: given the entry CCc1ccccc1COc1ccc(CNC(=O)[C@H](Cc2ccc(OP(=O)(O)O)cc2)NC(C)=O)cc1C(N)=O , state whether its pIC50 is greater than or equal to 5.
-1

----------
target: Src SH2 (Homo sapiens); construct: glutathione-S-transferase(GST)-Src SH2 fusion protein; assay: Inhibition of 125I-phosphopeptide binding to immobilized Src SH2; details: competitive 125I-phosphopeptide displacement, GST-Src SH2 fusion protein, pH 7.5, room temperature, 20 minutes; read-out: IC50, SRC SH2 Binding
Give measured IC50 for each item. Keep answers brief.
Write the answer as a number in µM, unit excluded.

Given CC(=O)N[C@@H](Cc1ccc(C(F)(F)P(=O)(O)O)cc1)C(=O)NC(C)c1ccc(OCC2CCCCC2)c(C(N)=O)c1 (single isomer, unassigned) [Example 63b] , respond with its IC50.
29

Output measured IC50 for this item: CC(=O)N[C@@H](Cc1ccc(C(F)(F)P(=O)(O)O)cc1)C(=O)NC(C)c1ccc(OCC2CCCCC2)c(C(N)=O)c1 (single isomer, unassigned) [Example 63a]
0.3

For the compound CC(=O)N[C@@H](Cc1ccc(OP(=O)(O)O)cc1)C(=O)N[C@@H](CCC(=O)O)C(=O)N1CCC[C@@H]1CCc1ccccc1 [Example 11] , report IC50.
2.1

Provide IC50 value for the following compound: NC(=O)c1cc(CNC(=O)c2ccc(OP(=O)(O)O)cc2)ccc1OCC1CCCCC1 [Example 44]
6.5

Input CC(=O)N[C@@H](Cc1ccc(OP(=O)(O)O)cc1)C(=O)N[C@@H](CCC(=O)O)C(=O)N1CCC[C@@H]1CCC1CCCCC1 [Example 12] , output reported IC50.
0.7

Return reported IC50. Input compound: CC(=O)N[C@@H](Cc1ccc(P(=O)(O)O)cc1)C(=O)NC(C)c1ccc(OCC2CCCCC2)c(C(N)=O)c1 (mixture of isomers) [Example 73]
8.6

Answer with the recorded IC50 for the compound listed here: CC(=O)N[C@@H](Cc1ccc(OP(=O)(O)O)cc1)C(=O)N[C@@H](Cc1ccc(O)cc1)C(=O)NCCCc1ccccc1 [Example 20]
20

Consider the compound CC(=O)N[C@@H](Cc1ccc(OP(=O)(O)O)cc1)C(=O)N[C@@H](CCC(=O)O)C(=O)NCCCc1ccccc1 [Example 14] and give its recorded IC50.
10

----------
molecular target: Src SH2 (Homo sapiens, UniProt P12931); construct: glutathione-S-transferase(GST)-Src SH2 fusion protein; assay: Inhibition of 125I-phosphopeptide binding to immobilized Src SH2; conditions: IC50, SRC SH2 Binding, competitive 125I-phosphopeptide displacement, GST-Src SH2 fusion protein, pH 7.5, room temperature, 20 minutes
Sequence (P12931 151-248 limits assumed): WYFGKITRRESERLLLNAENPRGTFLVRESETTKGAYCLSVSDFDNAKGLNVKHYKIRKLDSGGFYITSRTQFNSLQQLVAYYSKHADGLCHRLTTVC
measurement-type: IC50 (µM)
# number only, unit µM dropped from output

Report IC50 under test system Src SH2 (Homo sapiens, UniProt P12931) for CC(=O)N[C@@H](Cc1ccc(OP(=O)(O)O)cc1)C(=O)N[C@@H](CCC(=O)O)C(=O)NCCCc1cccc(OCC(N)=O)c1 [Example 24] .
7.2

Print Src SH2 (Homo sapiens, UniProt P12931) IC50 for CC(=O)N[C@@H](Cc1ccc(OP(=O)(O)O)cc1)C(=O)N[C@H](C(=O)NCCCc1ccccc1)C(C)O (stereo partly shown) [Example 58] .
21

Report IC50 under test system Src SH2 (Homo sapiens, UniProt P12931) for Cc1cc(C(=O)NCc2ccc(OCC3CCCCC3)c(C(N)=O)c2)cc(C)c1OP(=O)(O)O [Example 46] .
12.5

Supply IC50 measured with Src SH2 (Homo sapiens, UniProt P12931) for CC(=O)N[C@@H](Cc1ccc(OP(=O)(O)O)cc1)C(=O)NC(C)c1ccc(OC(C)CC2CCCCC2)c(C(N)=O)c1 (single isomer, unassigned) [Example 64a] .
0.6

Report its IC50 with Src SH2 (Homo sapiens, UniProt P12931) as the test system: CCCC[C@H](NC(=O)[C@H](Cc1ccc(OP(=O)(O)O)cc1)NC(C)=O)C(=O)N(C)CCCC1CCCCC1 [Example 9]
6.2

Answer with IC50 of CC(=O)N[C@@H](Cc1ccc(OP(=O)(O)O)cc1)C(=O)NC(C)c1ccc(OC(C)CC2CCCCC2)c(C(N)=O)c1 (single isomer, unassigned) [Example 64b] measured for Src SH2 (Homo sapiens, UniProt P12931).
11

Recall the reported IC50 of Cc1cccc(COc2ccc(CNC(=O)c3ccc(OP(=O)(O)O)cc3)cc2C(N)=O)c1 [Example 40] on Src SH2 (Homo sapiens, UniProt P12931) and write it down.
7

----------
biological target: Src SH2 (Homo sapiens, UniProt P12931); construct: glutathione-S-transferase(GST)-Src SH2 fusion protein; assay: Inhibition of 125I-phosphopeptide binding to immobilized Src SH2; conditions: read-out: IC50, SRC SH2 Binding; competitive 125I-phosphopeptide displacement, GST-Src SH2 fusion protein, pH 7.5, room temperature, 20 minutes
measurement-type: pIC50
Scale: negative log10 of molar concentration, which is what pIC50 denotes.

Tell me pIC50 reported for COc1ccccc1CCNC(=O)[C@H](CCC(=O)O)NC(=O)[C@H](Cc1ccc(OP(=O)(O)O)cc1)NC(C)=O [Example 21]
5.26

----------
molecular target: Src SH2 (Homo sapiens, UniProt P12931); construct: glutathione-S-transferase(GST)-Src SH2 fusion protein; test: Inhibition of 125I-phosphopeptide binding to immobilized Src SH2; details: IC50, SRC SH2 Binding, competitive 125I-phosphopeptide displacement, GST-Src SH2 fusion protein, pH 7.5, room temperature, 20 minutes
Square brackets hold non-standard residues; d marks the D form. Peptide text beside a SMILES is read from it. * marks the point of attachment. pY = N[C@@H](Cc1ccc(OP(=O)(O)O)cc1)C(=O)O; NHPhenethyl = c1ccc(CCN*)cc1
Please respond with reported log10 IC50 for every item in the list.
Use the decimal logarithm of IC50 (µM).

Output measured log10 IC50 for this item: CC(=O)N[C@@H](Cc1ccc(OP(=O)(O)O)cc1)C(=O)NCc1ccc(OCC2CCCCC2)c(C(N)=O)c1
0.93

Hello, please tell me recorded log10 IC50 for this one: CCCCN(CCCc1ccccc1)C(=O)[C@H](C)NC(=O)[C@H](Cc1ccc(OP(=O)(O)O)cc1)NC(C)=O
1.08

Look up log10 IC50 of CC(=O)N[C@@H](Cc1ccc(OP(=O)(O)O)cc1)C(=O)N[C@@H](CCC(=O)O)C(=O)NCCc1ccccc1 [Example 16] (Ac-[pY]-Glu-NHPhenethyl) and report it.
0.99

Return value of log10 IC50 for input CC(=O)N[C@@H](Cc1ccc(OP(=O)(O)O)cc1)C(=O)N[C@@H](C)C(=O)N(CCCC(=O)O)CCCc1ccccc1 , no commentary.
0.99

Look up and state reported log10 IC50 for CS(=O)(=O)N[C@@H](Cc1ccc(OP(=O)(O)O)cc1)C(=O)N[C@@H](CCC(=O)O)C(=O)NCCCc1ccccc1
0.97

Retrieve log10 IC50 measured for CC(=O)N[C@@H](Cc1ccc(OP(=O)(O)O)cc1)C(=O)N[C@@H](CCC(=O)O)C(=O)N(C)CCCc1ccccc1 and print it.
0.75

Give the reported log10 IC50 for this compound. CC(=O)N[C@@H](Cc1ccc(OP(=O)(O)O)cc1)C(=O)N[C@@H](CCC(=O)O)C(=O)N(C)[C@@H](C)CC1CCCCC1
0.36

// Input: CN(CCCC1CCCCC1)C(=O)[C@H](CCC(=O)O)NC(=O)[C@H](Cc1ccc(OP(=O)(O)O)cc1)NS(=O)(=O)N(C)C . Output its log10 IC50 only.
0.28

Entry CCC(C)CCCNC(=O)[C@H](CCC(=O)O)NC(=O)[C@H](Cc1ccc(OP(=O)(O)O)cc1)NC(C)=O (stereo partly shown) needs its log10 IC50 filled in; supply it.
0.61

Query log10 IC50 for Cc1cc(C)cc(COc2ccc(CNC(=O)c3ccc(OP(=O)(O)O)cc3)cc2C(N)=O)c1
0.82

Identify log10 IC50 associated with the compound CCC(CC)(NC(=O)[C@H](Cc1ccc(OP(=O)(O)O)cc1)NC(C)=O)C(=O)NCCCc1ccccc1
1.52

Determine from records and report log10 IC50 for NC(=O)c1cc(CNC(=O)c2ccc(OP(=O)(O)O)cc2)ccc1OCc1ccccc1
0.99

Using known records, supply log10 IC50 for CC(=O)N[C@@H](Cc1ccc(OP(=O)(O)O)cc1)C(=O)NC(C)c1ccc(OCc2cc(C)cc(C)c2)c(C(N)=O)c1 (mixture of isomers)
0.04

Give a short answer stating reported log10 IC50 for CC(=O)N[C@@H](Cc1ccc(OP(=O)(O)O)cc1)C(=O)N[C@@H](CCC(=O)O)C(=O)N[C@@H](C)Cc1ccccc1 .
0.52

For the compound CC(=O)N[C@@H](Cc1ccc(OP(=O)(O)O)cc1)C(=O)N[C@@H](CCC(=O)O)C(=O)NCCc1cccc2c1CCCC2 , give its reported log10 IC50.
0.64

Return log10 IC50 for the following compound: CCc1ccccc1COc1ccc(CNC(=O)[C@H](Cc2ccc(OP(=O)(O)O)cc2)NC(C)=O)cc1C(N)=O
0.79

Report log10 IC50 for CC(=O)N[C@@H](Cc1ccc(OP(=O)(O)O)cc1)C(=O)N[C@@H](CCC(=O)O)C(=O)NCCC12CC3CC(CC(C3)C1)C2
0.58

Determine from records and report log10 IC50 for CC(=O)N[C@@H](Cc1ccc(OP(=O)(O)O)cc1)C(=O)NCc1ccc(OCc2cc(C)cc(C)c2)c(C(N)=O)c1
0.40

Supply measured log10 IC50 of CC(=O)N[C@@H](Cc1ccc(OP(=O)(O)O)cc1)C(=O)N[C@@H](CCC(=O)O)C(=O)NCc1cccc2ccccc12 in your reply.
0.85

Determine from records and report log10 IC50 for CC(NC(=O)Nc1cccc2cc(OP(=O)(O)O)ccc12)c1ccc(OCC2CCCCC2)c(C(N)=O)c1 (racemic)
0.86

Consider the compound NC(=O)c1cc(CNC(=O)NCc2ccc(OP(=O)(O)O)cc2)ccc1OCC1CCCCC1 . State its measured log10 IC50.
1.53

Give recorded log10 IC50. CC(=O)N[C@@H](Cc1ccc(OP(=O)(O)O)cc1)C(=O)N[C@@H](CCC(=O)O)C(=O)N(C)[C@@H](C)Cc1ccccc1
0.51

Quick one: give measured log10 IC50 for NC(=O)c1cc(CNC(=O)Nc2ccc(OP(=O)(O)O)cc2)ccc1OCC1CCCCC1
1.30

For the compound CC(=O)N[C@@H](Cc1ccc(OP(=O)(O)O)cc1)C(=O)NC(Cc1ccccc1)c1ccc(OCC2CCCCC2)c(C(N)=O)c1 (mixture of isomers) , give its measured log10 IC50 value.
0.00

Output measured log10 IC50 for this item: CC(=O)N[C@@H](Cc1ccc(OP(=O)(O)O)cc1)C(=O)N[C@@H](C)C(=O)N(CCCCC(=O)O)CCCc1ccccc1
0.90
